- Assay System: SRPK1 (Homo sapiens, UniProt Q96SB4)
- Construct: purchased Eurofins Pharma Discovery Services (KinaseProfiler; Cerep BioPrint panel)
- Sequence (Q96SB4 whole entry): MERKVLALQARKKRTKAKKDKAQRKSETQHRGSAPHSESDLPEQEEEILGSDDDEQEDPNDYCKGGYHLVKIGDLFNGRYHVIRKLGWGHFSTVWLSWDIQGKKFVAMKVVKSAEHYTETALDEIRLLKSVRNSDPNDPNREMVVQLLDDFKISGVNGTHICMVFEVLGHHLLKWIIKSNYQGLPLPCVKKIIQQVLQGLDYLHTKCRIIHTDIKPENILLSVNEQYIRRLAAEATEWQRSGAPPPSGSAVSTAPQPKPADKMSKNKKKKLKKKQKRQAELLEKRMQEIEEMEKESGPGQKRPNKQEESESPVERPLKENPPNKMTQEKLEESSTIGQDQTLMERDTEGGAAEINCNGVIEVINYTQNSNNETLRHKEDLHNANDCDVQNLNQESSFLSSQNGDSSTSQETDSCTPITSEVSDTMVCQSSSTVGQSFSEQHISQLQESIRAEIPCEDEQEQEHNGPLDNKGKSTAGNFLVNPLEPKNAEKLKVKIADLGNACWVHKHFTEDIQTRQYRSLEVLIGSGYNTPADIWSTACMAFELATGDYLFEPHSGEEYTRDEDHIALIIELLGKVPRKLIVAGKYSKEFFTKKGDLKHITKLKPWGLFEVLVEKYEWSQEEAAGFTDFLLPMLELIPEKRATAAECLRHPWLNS
- Test Name: kinase selectivity panel
- Assay type: biochemical
- Study Conditions: read-out: percentage of control activity (POC), SRPK1
Consider the following molecules; for each one, report its remaining activity at 10 µM.
Don't forget the unit after the number, please.

Query: Tell me its remaining activity at 10 µM given CS(=O)(=O)N1CCN(c2ccc(Nc3ncc(C(N)=O)c(NC4CC4)n3)cc2)CC1 as the entry.
Reply: 83%

Query: Assign remaining activity at 10 µM to the following record: COc1c(NC(=O)c2ccc(C)c(-c3nnc4c(NCC(C)(C)C)nccn34)c2)cc(C(C)(C)C)cc1NS(C)(=O)=O [compound 7, reference compound]
Reply: 100%

Query: Respond only with remaining activity at 10 µM recorded for CC(C)(C)N1CCC(c2cc(-c3ccc(F)cc3Cl)c3cc[n+]([O-])c(-c4c(Cl)cccc4Cl)c3n2)CC1
Reply: 103%

Query: Given the molecule Cn1cc(-c2cccc(-c3nc(C(=O)NC4C5CC6CC4CC(O)(C6)C5)c(N)nc3N)c2)cn1 (centres unmarked) , write its reported remaining activity at 10 µM.
Reply: 92%

Query: Give the measured remaining activity at 10 µM for Cc1ccc(C(=O)NCC2CC2)cc1-c1ccc2c(c1)NC(=O)C21CCCC1
Reply: 92%

====

Record form. Attribute: remaining activity at 10 µM. Fill in for each entry.
- Assay System: PKG1α (Homo sapiens)
- Construct: purchased Eurofins Pharma Discovery Services (KinaseProfiler; Cerep BioPrint panel)
- Sequence (Q13976 whole entry): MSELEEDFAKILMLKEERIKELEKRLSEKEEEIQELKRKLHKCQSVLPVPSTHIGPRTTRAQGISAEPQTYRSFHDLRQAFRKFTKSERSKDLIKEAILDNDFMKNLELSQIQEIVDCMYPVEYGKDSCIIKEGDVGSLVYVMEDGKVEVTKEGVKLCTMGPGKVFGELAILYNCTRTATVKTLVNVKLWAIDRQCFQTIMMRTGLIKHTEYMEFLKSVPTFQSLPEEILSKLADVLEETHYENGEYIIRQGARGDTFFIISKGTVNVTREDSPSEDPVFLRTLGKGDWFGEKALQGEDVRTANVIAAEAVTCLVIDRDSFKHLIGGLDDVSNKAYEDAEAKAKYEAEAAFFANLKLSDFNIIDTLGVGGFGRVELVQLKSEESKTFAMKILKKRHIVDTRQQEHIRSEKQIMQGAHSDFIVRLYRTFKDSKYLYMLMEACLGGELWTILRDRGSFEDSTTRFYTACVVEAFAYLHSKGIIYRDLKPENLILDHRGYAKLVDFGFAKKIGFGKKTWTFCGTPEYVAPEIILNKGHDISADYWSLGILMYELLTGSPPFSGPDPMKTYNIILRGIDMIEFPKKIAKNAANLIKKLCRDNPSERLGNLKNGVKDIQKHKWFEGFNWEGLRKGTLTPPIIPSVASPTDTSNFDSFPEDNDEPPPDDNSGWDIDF
- Test Name: kinase selectivity panel
- Type: biochemical
- Study Conditions: read-out: percentage of control activity (POC), PKG1α
Give the value, in units of %, as a plain number.

Query: Quote remaining activity at 10 µM with test system PKG1α (Homo sapiens) for Cn1cc(-c2cccc(-c3nc(C(=O)NC4C5CC6CC4CC(O)(C6)C5)c(N)nc3N)c2)cn1 (centres unmarked)
Reply: 97

Query: Quote PKG1α (Homo sapiens) remaining activity at 10 µM for entry COc1c(NC(=O)c2ccc(C)c(-c3nnc4c(NCC(C)(C)C)nccn34)c2)cc(C(C)(C)C)cc1NS(C)(=O)=O [compound 7, reference compound] .
Reply: 105

Query: Please report remaining activity at 10 µM with PKG1α (Homo sapiens) for item CS(=O)(=O)N1CCN(c2ccc(Nc3ncc(C(N)=O)c(NC4CC4)n3)cc2)CC1 .
Reply: 66

Query: Lab note: record remaining activity at 10 µM of Cc1ccc(C(=O)NCC2CC2)cc1-c1ccc2c(c1)NC(=O)C21CCCC1 tested on PKG1α (Homo sapiens).
Reply: 102

Query: Output reported remaining activity at 10 µM of the compound CC(C)(C)N1CCC(c2cc(-c3ccc(F)cc3Cl)c3cc[n+]([O-])c(-c4c(Cl)cccc4Cl)c3n2)CC1 on PKG1α (Homo sapiens).
Reply: 108

====

I'd be grateful if you could share measured remaining activity at 10 µM for these entries.
- Assay System: MLK1 (Homo sapiens)
- Construct: purchased Eurofins Pharma Discovery Services (KinaseProfiler; Cerep BioPrint panel)
- Sequence (P80192 whole entry): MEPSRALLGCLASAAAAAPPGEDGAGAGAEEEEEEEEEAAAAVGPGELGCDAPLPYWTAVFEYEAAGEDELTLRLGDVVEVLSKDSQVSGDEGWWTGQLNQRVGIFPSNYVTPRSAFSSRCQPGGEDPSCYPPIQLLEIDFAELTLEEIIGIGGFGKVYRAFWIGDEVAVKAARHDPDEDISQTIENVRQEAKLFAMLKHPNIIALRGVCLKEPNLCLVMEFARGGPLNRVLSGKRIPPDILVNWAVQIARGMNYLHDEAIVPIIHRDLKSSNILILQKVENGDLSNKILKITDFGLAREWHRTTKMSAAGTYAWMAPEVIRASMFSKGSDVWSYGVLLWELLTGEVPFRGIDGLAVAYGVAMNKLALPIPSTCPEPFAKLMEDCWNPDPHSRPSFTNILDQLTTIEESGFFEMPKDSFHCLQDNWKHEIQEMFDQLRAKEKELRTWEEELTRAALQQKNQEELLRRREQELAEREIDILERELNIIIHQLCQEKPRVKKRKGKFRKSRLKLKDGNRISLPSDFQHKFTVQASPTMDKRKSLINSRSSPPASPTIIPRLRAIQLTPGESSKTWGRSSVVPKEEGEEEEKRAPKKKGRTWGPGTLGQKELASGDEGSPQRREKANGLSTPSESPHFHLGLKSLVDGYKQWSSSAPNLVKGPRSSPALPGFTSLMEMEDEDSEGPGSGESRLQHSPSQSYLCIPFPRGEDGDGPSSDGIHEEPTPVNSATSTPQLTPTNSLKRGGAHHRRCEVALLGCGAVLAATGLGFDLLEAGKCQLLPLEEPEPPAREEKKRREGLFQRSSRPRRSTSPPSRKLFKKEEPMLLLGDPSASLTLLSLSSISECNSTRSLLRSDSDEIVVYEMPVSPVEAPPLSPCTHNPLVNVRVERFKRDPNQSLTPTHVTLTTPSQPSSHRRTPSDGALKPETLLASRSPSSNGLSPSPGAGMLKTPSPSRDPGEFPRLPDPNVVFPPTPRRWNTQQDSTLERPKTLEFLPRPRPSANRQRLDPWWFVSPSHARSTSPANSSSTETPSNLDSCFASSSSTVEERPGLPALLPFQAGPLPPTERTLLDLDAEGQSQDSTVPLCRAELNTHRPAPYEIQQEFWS
- Test Name: kinase selectivity panel
- Type: biochemical
- Study Conditions: read-out: percentage of control activity (POC), MLK1
Answer in %, number only, no unit symbol.

Query: Quote remaining activity at 10 µM reported for Cn1cc(-c2cccc(-c3nc(C(=O)NC4C5CC6CC4CC(O)(C6)C5)c(N)nc3N)c2)cn1 (centres unmarked) please.
Reply: 79

Query: Could you please provide reported remaining activity at 10 µM for CS(=O)(=O)N1CCN(c2ccc(Nc3ncc(C(N)=O)c(NC4CC4)n3)cc2)CC1 ? Thanks!
Reply: -1

Query: Tell me remaining activity at 10 µM reported for COc1c(NC(=O)c2ccc(C)c(-c3nnc4c(NCC(C)(C)C)nccn34)c2)cc(C(C)(C)C)cc1NS(C)(=O)=O [compound 7, reference compound]
Reply: 104

Query: For the compound Cc1ccc(C(=O)NCC2CC2)cc1-c1ccc2c(c1)NC(=O)C21CCCC1 , give its reported remaining activity at 10 µM.
Reply: 97

Query: Tell me remaining activity at 10 µM reported for CC(C)(C)N1CCC(c2cc(-c3ccc(F)cc3Cl)c3cc[n+]([O-])c(-c4c(Cl)cccc4Cl)c3n2)CC1
Reply: 99
